Test System: AktK (Homo sapiens, UniProt P31749)
Sequence (P31749 whole entry): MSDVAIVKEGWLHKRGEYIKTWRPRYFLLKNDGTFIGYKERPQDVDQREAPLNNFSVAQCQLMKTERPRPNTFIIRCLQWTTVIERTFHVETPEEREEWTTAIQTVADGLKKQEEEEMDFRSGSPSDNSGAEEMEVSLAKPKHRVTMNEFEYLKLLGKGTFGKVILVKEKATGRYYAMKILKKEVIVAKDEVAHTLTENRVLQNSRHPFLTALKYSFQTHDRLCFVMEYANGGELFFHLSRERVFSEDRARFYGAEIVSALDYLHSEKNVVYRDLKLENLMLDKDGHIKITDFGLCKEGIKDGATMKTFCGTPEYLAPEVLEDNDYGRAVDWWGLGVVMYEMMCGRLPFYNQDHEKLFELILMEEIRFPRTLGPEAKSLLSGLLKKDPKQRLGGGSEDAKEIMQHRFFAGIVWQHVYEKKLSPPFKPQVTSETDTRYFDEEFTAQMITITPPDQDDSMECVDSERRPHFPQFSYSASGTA
Procedure Text: Luciferase-coupled chemiluminescence kinase assay (ATP consumption)
Type: biochemical
Cond: Table 1; class symbols per key; read-out: AKT-1 IC50
Listed here are compounds together with their documented IC50.

These solved cases illustrate the format of a correct answer.
Challenge: Param readout = IC50; param system = AktK (Homo sapiens, UniProt P31749); param query = COc1ccccc1N1CCN(c2ncnc3[nH]nc(Br)c23)CC1 ; response: value
Response given: ≥ 10 µM

Challenge: Also check Cc1c(OCCCN2CCOCC2)cc(Cl)cc1N1CCN(c2ncnc3[nH]nc(C(F)(F)F)c23)CC1
Response given: 1 to 10 µM

***
Challenge: Param readout = IC50; param system = AktK (Homo sapiens, UniProt P31749); param query = Cc1c(NCCN2CCCC2)cc(OCC2CC2(F)F)cc1N1CCN(c2ncnc3[nH]nc(Br)c23)CC1 (centres unmarked) ; response: value
Response given: < 0.1 µM

Challenge: Also check Cc1ccc(C(=O)Nc2ccccc2)cc1N1CCN(c2ncnc3[nH]nc(Br)c23)C[C@@H]1C
Response given: 0.1 to 1 µM

Challenge: Also check Cc1c(OCCC2CCN(C)CC2)cc(Cl)cc1N1CCN(c2ncnc3[nH]nc(C(F)(F)F)c23)CC1
Response given: 0.1 to 1 µM

Challenge: Also check FC(F)(F)c1ccccc1N1CCN(c2ncnc3[nH]nc(Br)c23)CC1
Response given: ≥ 10 µM

Challenge: Also check FC(F)(F)c1ccc(N2CCN(c3ncnc4[nH]nc(Br)c34)CC2)cc1
Response given: ≥ 10 µM

Challenge: Also check Cc1cccc(N2CCN(c3ncnc4[nH]nc(Br)c34)CC2C)c1 (centres unmarked)
Response given: 1 to 10 µM

Challenge: Also check CCc1n[nH]c2ncnc(N3CCN(c4cc(Cl)cc(OCCN(CC)CC)c4)CC3)c12
Response given: ≥ 10 µM

Challenge: Also check Cc1c(NCCN2CCCC2)cc(OCCC(C)C)cc1N1CCN(c2ncnc3[nH]nc(Br)c23)CC1
Response given: < 0.1 µM

###

Test System: AktK (Homo sapiens)
Procedure Text: Luciferase-coupled chemiluminescence kinase assay (ATP consumption)
Type: biochemical
Cond: Table 1; class symbols per key; read-out: AKT-1 IC50
Measure Name: IC50

Challenge: // IC50 lookup, key: Cc1c(NCCN2CCCC2)cc(Cl)cc1N1CCN(c2ncnc3[nH]nc(C(C)C)c23)CC1
Response given: 1000 to 10000 nM

Challenge: Also check CCCCC(=O)c1cc(NCCN2CCCC2)c(C)c(N2CCN(c3ncnc4[nH]nc(CC)c34)CC2)c1
Response given: < 100 nM

Challenge: Also check CCc1n[nH]c2ncnc(N3CCN(c4cc(Cl)cc(OCCN5CCCCC5)c4C)CC3)c12
Response given: 1000 to 10000 nM

***
Challenge: // IC50 lookup, key: CCCC(=O)c1cc(NCCN2CCCC2)cc(N2CCN(c3ncnc4[nH]nc(Br)c34)CC2)c1
Response given: < 100 nM

Challenge: Also check Cc1ccc(-c2ccccc2OCCN2CCOCC2)cc1N1CCN(c2ncnc3[nH]nc(Br)c23)CC1
Response given: < 100 nM

Challenge: Also check CC(C)CCNc1c(F)c(NCCN2CCCC2)nc(N2CCN(c3ncnc4[nH]nc(Br)c34)CC2)c1F
Response given: 100 to 1000 nM

Challenge: Also check CCc1n[nH]c2ncnc(N3CCN(c4cc(F)cc(NCCN5CCCC5)c4Cl)CC3)c12
Response given: 1000 to 10000 nM

Challenge: Also check COC(=O)c1cc(Br)c(C)c(N2CCN(c3ncnc4[nH]nc(Br)c34)CC2)c1
Response given: 100 to 1000 nM
